# Tested on: LOX IMVI
# Assay notes: Antiproliferative activity against human LOX IMVI cell line after 48 hrs
# Format: functional
Kindly supply the reported GI50 values for the records listed here.

Examples from the recorded data:
{"Molecule": "CC(=O)O[C@H]1C[C@H]2[C@@H]([C@H](OC(C)=O)C[C@@H]3CC4(CC[C@@]32C)OOC2(CCC(C(=O)Nc3ccccc3)CC2)OO4)[C@@H]2CC[C@H]([C@H](C)CCC(=O)Nc3ccccc3)[C@@]12C (stereo in doubt; 13)", "Assay system": "LOX IMVI", "Test result": "370 nM"}
{"Molecule": "CC(=O)O[C@H]1C[C@H]2[C@@H]([C@H](OC(C)=O)C[C@@H]3CC4(CC[C@@]32C)OOC2(CCC(C(N)=O)CC2)OO4)[C@@H]2CC[C@H]([C@H](C)CCC(N)=O)[C@@]12C (stereo in doubt; 7)", "Assay system": "LOX IMVI", "Test result": "1850 nM"}
{"Molecule": "CC(=O)O[C@H]1C[C@H]2[C@@H]([C@H](OC(C)=O)C[C@@H]3CC4(CC[C@@]32C)OOC2(CCC(C(=O)NCCN(C)C)CC2)OO4)[C@@H]2CC[C@H]([C@H](C)CCC(=O)NCCN(C)C)[C@@]12C (stereo in doubt; 11)", "Assay system": "LOX IMVI", "Test result": "1180 nM"}

Let me know recorded GI50 for CCCOC(=O)CC[C@@H](C)[C@H]1CC[C@H]2[C@@H]3[C@H](OC(C)=O)C[C@@H]4CC5(CC[C@]4(C)[C@H]3C[C@H](OC(C)=O)[C@]12C)OOC1(CCC(C(=O)OCCC)CC1)OO5 (stereo in doubt; 5a) , thanks.
1090 nM

---

Record set of IC50 for target or system Plasmodium falciparum.

{"Molecule": "CC(=O)O[C@H]1C[C@H]2[C@@H]([C@H](OC(C)=O)C[C@@H]3CC4(CC[C@@]32C)OOC2(CCC(C(=O)O)CC2)OO4)[C@@H]2CC[C@H]([C@H](C)CCC(=O)O)[C@@]12C (stereo in doubt; 6b)", "Assay system": "Plasmodium falciparum", "IC50": "> 0.3 µM"}
{"Molecule": "CC(=O)O[C@H]1C[C@H]2[C@@H]([C@H](OC(C)=O)C[C@@H]3CC4(CC[C@@]32C)OOC2(CCC(C(=O)Nc3ccccc3)CC2)OO4)[C@@H]2CC[C@H]([C@H](C)CCC(=O)Nc3ccccc3)[C@@]12C (stereo in doubt; 13)", "Assay system": "Plasmodium falciparum", "IC50": "0.0062 µM"}
{"Molecule": "CC(=O)O[C@H]1C[C@H]2[C@@H]([C@H](OC(C)=O)C[C@@H]3CC4(CC[C@@]32C)OOC2(CCC(C)CC2)OO4)[C@@H]2CC[C@H]([C@H](C)CCC(N)=O)[C@@]12C (stereo in doubt; 17)", "Assay system": "Plasmodium falciparum", "IC50": "0.02 µM"}

Go through the list and state IC50 for each entry.
1. CC(=O)O[C@H]1C[C@H]2[C@@H]([C@H](OC(C)=O)C[C@@H]3CC4(CC[C@@]32C)OOC2(CCC(C)CC2)OO4)[C@@H]2CC[C@H]([C@H](C)CCC(=O)O)[C@@]12C (stereo in doubt; 18)
2. CC(=O)O[C@H]1C[C@H]2[C@@H]([C@H](OC(C)=O)C[C@@H]3CC4(CC[C@@]32C)OOC2(CCC(C(=O)Nc3ccccc3)CC2)OO4)[C@@H]2CC[C@H]([C@H](C)CCC(=O)Nc3ccccc3)[C@@]12C (stereo in doubt; 14)
3. CC(=O)O[C@H]1C[C@H]2[C@@H]([C@H](OC(C)=O)C[C@@H]3CC4(CC[C@@]32C)OOC2(CCC(C(=O)NCCN(C)C)CC2)OO4)[C@@H]2CC[C@H]([C@H](C)CCC(=O)NCCN(C)C)[C@@]12C (stereo in doubt; 11)

1. 0.0311 µM
2. 0.0296 µM
3. 0.0756 µM

---

Record set of IC50 for target or system Plasmodium falciparum.
Answers are plain numbers, in nM.

Examples from the recorded data:
{"Compound": "CC(=O)O[C@H]1C[C@H]2[C@@H]([C@H](OC(C)=O)C[C@@H]3CC4(CC[C@@]32C)OOC2(CCC(C(=O)O)CC2)OO4)[C@@H]2CC[C@H]([C@H](C)CCC(=O)O)[C@@]12C (stereo in doubt; 6a)", "Assay system": "Plasmodium falciparum", "IC50, nM": 98.3}
{"Compound": "CC(=O)O[C@H]1C[C@H]2[C@@H]([C@H](OC(C)=O)C[C@@H]3CC4(CC[C@@]32C)OOC2(CCC(C(N)=O)CC2)OO4)[C@@H]2CC[C@H]([C@H](C)CCC(N)=O)[C@@]12C (stereo in doubt; 8)", "Assay system": "Plasmodium falciparum", "IC50, nM": 119}
{"Compound": "CCCNC(=O)CC[C@@H](C)[C@H]1CC[C@H]2[C@@H]3[C@H](OC(C)=O)C[C@@H]4CC5(CC[C@]4(C)[C@H]3C[C@H](OC(C)=O)[C@]12C)OOC1(CCC(C(=O)NCCC)CC1)OO5 (stereo in doubt; 10)", "Assay system": "Plasmodium falciparum", "IC50, nM": 38.5}

// next item, IC50 requested
Let me know recorded IC50 for CCCOC(=O)CC[C@@H](C)[C@H]1CC[C@H]2[C@@H]3[C@H](OC(C)=O)C[C@@H]4CC5(CC[C@]4(C)[C@H]3C[C@H](OC(C)=O)[C@]12C)OOC1(CCC(C(=O)OCCC)CC1)OO5 (stereo in doubt; 5b) , thanks.
30.3

---

Record set of pIC50 for target or system Plasmodium falciparum.
Numbers only, as −log10 of the molar value.

{"Compound": "CCCOC(=O)CC[C@@H](C)[C@H]1CC[C@H]2[C@@H]3[C@H](OC(C)=O)C[C@@H]4CC5(CC[C@]4(C)[C@H]3C[C@H](OC(C)=O)[C@]12C)OOC1(CCC(C(=O)OCCC)CC1)OO5 (stereo in doubt; 5b)", "pIC50": 7.37}
{"Compound": "CCCNC(=O)CC[C@@H](C)[C@H]1CC[C@H]2[C@@H]3[C@H](OC(C)=O)C[C@@H]4CC5(CC[C@]4(C)[C@H]3C[C@H](OC(C)=O)[C@]12C)OOC1(CCC(C(=O)NCCC)CC1)OO5 (stereo in doubt; 9)", "pIC50": 7.83}
{"Compound": "CC(=O)O[C@H]1C[C@H]2[C@@H]([C@H](OC(C)=O)C[C@@H]3CC4(CC[C@@]32C)OOC2(CCC(C(=O)NCCN(C)C)CC2)OO4)[C@@H]2CC[C@H]([C@H](C)CCC(=O)NCCN(C)C)[C@@]12C (stereo in doubt; 11)", "pIC50": 7.09}

// next item, pIC50 requested
Let me know recorded pIC50 for CCCNC(=O)CC[C@@H](C)[C@H]1CC[C@H]2[C@@H]3[C@H](OC(C)=O)C[C@@H]4CC5(CC[C@]4(C)[C@H]3C[C@H](OC(C)=O)[C@]12C)OOC1(CCC(C(=O)NCCC)CC1)OO5 (stereo in doubt; 10) , thanks.
7.28

---

# System: Plasmodium falciparum
# Assay notes: microbe, parasite or virus in culture
# Measurement setup: D6
# Description: Antimalarial activity against Plasmodium falciparum D6
Kindly supply the reported IC90 values for the records listed here.
One number for each entry, in nM.

Examples from the recorded data:
{"Molecule": "CC(=O)O[C@H]1C[C@H]2[C@@H]([C@H](OC(C)=O)C[C@@H]3CC4(CC[C@@]32C)OOC2(CCC(C(=O)NCCN(C)C)CC2)OO4)[C@@H]2CC[C@H]([C@H](C)CCC(=O)NCCN(C)C)[C@@]12C (stereo in doubt; 12)", "IC90 [nM]": 187}
{"Molecule": "C[C@@H]1CC[C@H]2[C@@H](C)C(=O)O[C@@H]3O[C@@]4(C)CC[C@@H]1[C@]32OO4", "IC90 [nM]": 12.8}
{"Molecule": "CCN(CC)CCCC(C)Nc1ccnc2cc(Cl)ccc12 (centres undefined)", "IC90 [nM]": 17.6}

// next item, IC90 requested
Return reported IC90 for target or system Plasmodium falciparum, item O[C@@H](c1cc(C(F)(F)F)nc2c(C(F)(F)F)cccc12)[C@H]1CCCCN1 .
21.7

---

# System: Plasmodium falciparum
# Assay notes: microbe, parasite or virus in culture
# Measurement setup: W2
# Description: Antimalarial activity against Plasmodium falciparum W2
Property: pIC50
Answers are plain numbers, as −log10 of the molar value.

Examples from the recorded data:
{"Compound": "C[C@@H]1CC[C@H]2[C@@H](C)C(=O)O[C@@H]3O[C@@]4(C)CC[C@@H]1[C@]32OO4", "Assay system": "Plasmodium falciparum", "Test result": 8.17}
{"Compound": "O[C@@H](c1cc(C(F)(F)F)nc2c(C(F)(F)F)cccc12)[C@H]1CCCCN1", "Assay system": "Plasmodium falciparum", "Test result": 8.51}
{"Compound": "CCCC(=O)CC[C@@H](C)[C@H]1CC[C@H]2[C@@H]3[C@H](OC(C)=O)C[C@@H]4CC5(CC[C@]4(C)[C@H]3C[C@H](OC(C)=O)[C@]12C)OOC1(CCCCC1)OO5", "Assay system": "Plasmodium falciparum", "Test result": 8.17}

Let me know recorded pIC50 for CC(=O)O[C@H]1C[C@H]2[C@@H]([C@H](OC(C)=O)C[C@@H]3CC4(CC[C@@]32C)OOC2(CCC(C(=O)NCCN(C)C)CC2)OO4)[C@@H]2CC[C@H]([C@H](C)CCC(=O)NCCN(C)C)[C@@]12C (stereo in doubt; 12) , thanks.
6.88
